Data credit: patent US12344623B2

Target: human A2B receptor (Homo sapiens, UniProt P29275)
Construct: expressed in transfected cells; host or cells: HEK293
Sequence (P29275 whole entry): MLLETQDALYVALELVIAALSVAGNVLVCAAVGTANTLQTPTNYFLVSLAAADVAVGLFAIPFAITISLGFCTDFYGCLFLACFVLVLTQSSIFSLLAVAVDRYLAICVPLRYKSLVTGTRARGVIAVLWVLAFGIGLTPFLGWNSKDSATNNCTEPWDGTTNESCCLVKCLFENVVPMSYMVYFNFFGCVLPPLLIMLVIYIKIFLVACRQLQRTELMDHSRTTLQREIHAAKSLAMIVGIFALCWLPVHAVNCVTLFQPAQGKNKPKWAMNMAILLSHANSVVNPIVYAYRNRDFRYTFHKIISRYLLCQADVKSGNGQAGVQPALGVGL
Assay: Functional A2B receptor activity, recombinant HEK293 cells, cAMP (HTRF), agonist NECA
Type: cell-based
Settings: read-out: Functional A2B receptor activity, HEK293, cAMP, IC50
pIC50: −log10 of the molar value.
Measurement Type: pIC50

molecule=COc1ncc(C2=CCOCC2)c2sc(NC(=O)c3ccc(C(=O)N(C)C)cc3)nc12 system="human A2B receptor (Homo sapiens, UniProt P29275)" assay_result="> 8.00"
molecule="COc1ncc(C2COCCO2)c2sc(NC(=O)c3ccc(-c4nnn[nH]4)cc3)nc12 (stereo not shown)" system="human A2B receptor (Homo sapiens, UniProt P29275)" assay_result="> 8.00"
molecule=COc1ncc(-c2cccc(N)c2)c2sc(NC(=O)N3CCC4(CCOCC4)C3)nc12 system="human A2B receptor (Homo sapiens, UniProt P29275)" assay_result="> 8.00"
molecule="COc1ccc(N2CCOCC2)c2sc(NC(=O)N3CCOCC3)nc12 [reference compound]" system="human A2B receptor (Homo sapiens, UniProt P29275)" assay_result="> 6.00"

* * *

Documented pIC50 across a set of molecules
Molecular target: human A3 receptor (Homo sapiens)
Construct: expressed in transfected cells; host or cells: CHO
Sequence (P0DMS8 whole entry): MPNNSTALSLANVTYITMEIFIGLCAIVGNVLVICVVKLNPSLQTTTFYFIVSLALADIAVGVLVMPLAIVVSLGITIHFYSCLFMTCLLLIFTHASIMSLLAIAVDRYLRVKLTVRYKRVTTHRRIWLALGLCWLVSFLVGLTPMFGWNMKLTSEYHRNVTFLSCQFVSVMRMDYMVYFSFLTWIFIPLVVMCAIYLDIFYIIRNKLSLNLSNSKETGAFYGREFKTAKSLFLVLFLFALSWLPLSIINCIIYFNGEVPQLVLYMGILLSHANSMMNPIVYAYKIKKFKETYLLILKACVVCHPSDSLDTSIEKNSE
Experiment: Functional A3 receptor activity, recombinant CHO cells, cAMP (HTRF), forskolin, agonist IB-MECA
Format: cell-based
Conditions: recombinant CHO cells, forskolin, agonist IB-MECA, cAMP; read-out: Functional A3 receptor activity, CHO, cAMP, IC50
pIC50: −log10 of the molar value.
Measurement Type: pIC50

molecule="COc1cnc(C2CCOCC2)c2sc(NC(=O)N3CCC(O)CC3)nc12 [drawing 190, reference compound]" assay_result="> 6.00"
molecule="COc1cnc(N2CCOCC2)c2sc(NC(=O)N3CCCCC3)nc12 [drawing 192, reference compound]" assay_result="> 7.00"
molecule="COc1ccc(N2CCOCC2)c2sc(NC(=O)N3CCOCC3)nc12 [reference compound]" assay_result="< 6.00"
molecule="COc1ccc(C2CCOCC2)c2sc(NC(=O)N3CCOCC3)nc12 [reference compound]" assay_result="< 6.00"

* * *

Target: human A1 receptor (Homo sapiens, UniProt P30542)
Construct: expressed in transfected cells; host or cells: CHO
Test: Functional A1 receptor activity, recombinant CHO cells, cAMP (HTRF), forskolin, agonist CPA
Assay type: cell-based
Settings: recombinant CHO cells, forskolin, agonist CPA, cAMP; read-out: Functional A1 receptor activity, CHO, cAMP, IC50
Measurement Type: IC50

compound="COc1ccc(-c2ccccc2)c2sc(NC(=O)NCCN3CCCCC3)nc12 [drawing 187, reference compound]" measurement_type=IC50 assay_result="> 1000 nM"
compound="COc1ccc(N2CCOCC2)c2sc(NC(=O)N3CCOCC3)nc12 [reference compound]" measurement_type=IC50 assay_result="> 1000 nM"
compound="COc1cnc(N2CCOCC2)c2sc(NC(=O)N3CCC(CO)CC3)nc12 [drawing 188, reference compound]" measurement_type=IC50 assay_result="> 1000 nM"
compound="COc1ccc(N2CCOCC2)c2sc(NC(=O)N3CCC(C)(O)CC3)nc12 [Tozadenant, reference compound]" measurement_type=IC50 assay_result="> 1000 nM"
compound="COc1ccc(-c2cnn(C)c2)c2sc(NC(=O)N3CCC(C)(O)CC3)nc12 [reference compound]" measurement_type=IC50 assay_result="< 1000 nM"
compound="COc1ccc(C2CCOCC2)c2sc(NC(=O)N3CCOCC3)nc12 [reference compound]" measurement_type=IC50 assay_result="< 1000 nM"
compound="COc1cnc(N2CCOCC2)c2sc(NC(=O)N3CCCCC3)nc12 [drawing 192, reference compound]" measurement_type=IC50 assay_result="> 1000 nM"
compound="COc1cnc(C2CCOCC2)c2sc(NC(=O)N3CCC(O)CC3)nc12 [drawing 190, reference compound]" measurement_type=IC50 assay_result="> 1000 nM"
compound="COc1ccc(N2CCOCC2)c2sc(NC(=O)N3CCCCC3)nc12 [drawing 191, reference compound]" measurement_type=IC50 assay_result="> 1000 nM"
compound="COc1ccc(-c2cnn(C)c2)c2sc(NC(=O)c3ccnc(N4CCOCC4)c3)nc12 [reference compound]" measurement_type=IC50 assay_result="< 1000 nM"
compound="COc1cnc(N2CCOCC2)c2sc(NC(=O)N3CCC4(CCCO4)CC3)nc12 [drawing 189, reference compound]" measurement_type=IC50 assay_result="> 1000 nM"
compound="COc1cnc(N2CCOCC2)c2sc(NC(=O)N3CCOCC3)nc12 [drawing 193, reference compound]" measurement_type=IC50 assay_result="> 1000 nM"

* * *

Molecular target: human A2B receptor (Homo sapiens)
Construct: expressed in transfected cells; host or cells: HEK293
Assay: Functional A2B receptor activity, recombinant HEK293 cells, cAMP (HTRF), agonist NECA
Format: cell-based
Details: read-out: Functional A2B receptor activity, HEK293, cAMP, IC50
pIC50: −log10 of the molar value.
Measurement Type: pIC50

molecule=COCCNc1ncc(C(=O)Nc2nc3c(OC)ncc(C4CCOCC4)c3s2)s1 assay_result="> 8.00"
molecule="COc1ncc(C2=CCC(OC)CC2)c2sc(NC(=O)N3CC[C@@]4(CCCOC4)C3)nc12 (stereo partly shown)" assay_result="> 6.00"
molecule=COc1ncc(C2=CCOCC2)c2sc(NC(=O)N3CCC4(CCNCC4)C3)nc12 assay_result="> 7.00"
molecule=COC(=O)N(C)Cc1ccc(C(=O)Nc2nc3c(OC)ncc(-c4ccccc4)c3s2)cc1 assay_result="> 7.00"
molecule=COc1ncc(C2=CCCCC2)c2sc(NC(=O)N3CCC4(CCOCC4)C3)nc12 assay_result="> 7.00"
molecule=COc1ncc(-c2ccccc2)c2sc(NC(=O)N3CCC(C(=O)N(C)C)CC3)nc12 assay_result="> 7.00"
molecule=COc1ncc(-c2cnn(C[C@@H]3CCCOC3)c2)c2sc(NC(=O)N3CCC4(CCOCC4)C3)nc12 assay_result="> 7.00"
molecule=COc1nc(F)c(-c2ccccc2)c2sc(NC(=O)c3c[nH]cn3)nc12 assay_result="> 8.00"
molecule=COc1ncc(C2=CCOCC2)c2sc(NC(=O)N3CCC(N4C(=O)CSC4=O)CC3)nc12 assay_result="> 8.00"
molecule=COc1nc(F)c(C2CCOCC2)c2sc(NC(=O)C3CC3)nc12 assay_result="> 7.00"
molecule=COc1nc(F)c(C2CCOCC2)c2sc(NC(=O)c3ccc(C(=O)N(C)C)cc3)nc12 assay_result="> 8.00"
molecule=COc1ncc(C2=CCOCC2)c2sc(NC(=O)c3c[nH]c(-c4ccncc4)n3)nc12 assay_result="> 8.00"
molecule=COc1nc(F)c(N2CCOCC2)c2sc(NC(=O)N3CC[C@]4(CCOC4)C3)nc12 assay_result="> 7.00"
molecule=COc1nc(F)c(N2CCOCC2)c2sc(NC(=O)N3CC[C@]4(CCCOC4)C3)nc12 assay_result="> 7.00"
molecule=COc1ncc([C@@H]2COCCO2)c2sc(NC(=O)c3ccc(C(=O)O)cc3)nc12 assay_result="> 7.00"
molecule=COc1ncc(I)c2sc(NC(=O)N3CCC4(CCOCC4)C3)nc12 assay_result="> 7.00"

* * *

Target: human A1 receptor (Homo sapiens, UniProt P30542)
Construct: expressed in transfected cells; host or cells: CHO
Sequence (P30542 1-326): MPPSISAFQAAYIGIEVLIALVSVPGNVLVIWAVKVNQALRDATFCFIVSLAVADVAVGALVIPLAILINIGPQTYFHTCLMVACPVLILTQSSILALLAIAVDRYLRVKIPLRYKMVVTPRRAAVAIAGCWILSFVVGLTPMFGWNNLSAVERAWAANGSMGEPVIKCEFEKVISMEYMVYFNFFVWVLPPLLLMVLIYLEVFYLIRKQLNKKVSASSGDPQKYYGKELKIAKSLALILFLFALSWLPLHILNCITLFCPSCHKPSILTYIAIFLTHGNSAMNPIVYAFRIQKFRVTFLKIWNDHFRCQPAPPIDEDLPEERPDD
Experiment: Functional A1 receptor activity, recombinant CHO cells, cAMP (HTRF), forskolin, agonist CPA
Type: cell-based
Conditions: recombinant CHO cells, forskolin, agonist CPA; read-out: Functional A1 receptor activity, CHO, cAMP, IC50
Documented IC50 across a set of compounds
Measurement Type: IC50

compound=COc1nc(F)c(N2CCOCC2)c2sc(NC(=O)N3CC[C@@]4(CCCOC4)C3)nc12 assay_result="> 1 µM"
compound="COc1ncc(C2=CCOC2)c2sc(NC(=O)N3CCC4(CCCOC4)C3)nc12 (centres unmarked)" assay_result="> 1 µM"
compound=COc1ncc(-c2ccoc2)c2sc(NC(=O)N3CCC4(CCOCC4)C3)nc12 assay_result="> 1 µM"
compound=COc1ncc(C2=CCOCC2)c2sc(NC(=O)c3ccc([C@@H](C)NC(C)=O)cc3)nc12 assay_result="< 1 µM"
compound=COc1ncc(-c2cnn(Cc3ccncc3)c2)c2sc(NC(=O)N3CCC4(CCOCC4)C3)nc12 assay_result="> 1 µM"
compound=COc1ncc(-c2ccnc(N)c2)c2sc(NC(=O)N3CCC4(CCOCC4)C3)nc12 assay_result="> 1 µM"
compound=COc1ncc(-c2ccccc2)c2sc(NC(=O)N3CCC(N4C(=O)CCC4=O)CC3)nc12 assay_result="> 1 µM"
compound="COc1ncc(C2COCCO2)c2sc(NC(=O)c3ccc(-c4nnn[nH]4)cc3)nc12 (centres unmarked)" assay_result="> 1 µM"
compound=COc1ncc(-c2cccc(NCc3cocn3)c2)c2sc(NC(=O)N3CCC4(CCOCC4)C3)nc12 assay_result="> 1 µM"
compound=COc1ncc(-c2ccccc2)c2sc(NC(=O)N3CC[C@H](CN)C3)nc12 assay_result="> 1 µM"
compound=COc1ncc(C2=CCOCC2)c2sc(NC(=O)Nc3ccc(NC(C)=O)c(C)c3)nc12 assay_result="< 0.1 µM"
compound=COc1ncc(C2=CCOCC2)c2sc(NC(=O)c3c[nH]cn3)nc12 assay_result="< 0.1 µM"
compound=COc1ncc(C2=CCOCC2)c2sc(NC(=O)c3c[nH]c(-c4ccccn4)n3)nc12 assay_result="< 1 µM"
compound=COc1ncc(C2=CCC(F)(F)CC2)c2sc(NC(=O)N3CCC4(CCOCC4)C3)nc12 assay_result="< 1 µM"
compound=COc1nc(F)c(-c2ccccc2)c2sc(NC(=O)C34CC(C(=O)N(C)CCO)(C3)C4)nc12 assay_result="> 1 µM"
compound=COc1ncc(I)c2sc(NC(=O)N3CCC4(CCOCC4)C3)nc12 assay_result="> 1 µM"
compound=COc1nc(F)c(N2CCOCC2)c2sc(NC(=O)N3CC[C@]4(CCOC4)C3)nc12 assay_result="> 1 µM"
compound=COc1nc(F)c(C2CCOCC2)c2sc(NC(=O)N3CCC4(CCOCC4)C3)nc12 assay_result="> 1 µM"
compound=COc1ncc(C2=CCOCC2)c2sc(NC(=O)N3CCC(C(N)=O)CC3)nc12 assay_result="< 1 µM"
compound=COc1ncc(C2=CCOCC2)c2sc(NC(=O)c3cnn(-c4ccncc4)c3)nc12 assay_result="< 1 µM"
compound=COc1ncc(-c2ccc(C)s2)c2sc(NC(=O)N3CCC4(CCOCC4)C3)nc12 assay_result="> 1 µM"
compound=[2H]C([2H])([2H])Oc1ncc(C2=CCOCC2)c2sc(NC(=O)N3CC[C@]4(CCCOC4)C3)nc12 assay_result="< 1 µM"
compound=COc1ncc(-c2cnn(CC(F)F)c2)c2sc(NC(=O)N3CCC4(CCOCC4)C3)nc12 assay_result="< 1 µM"
compound=COc1ncc(C2=CCOCC2)c2sc(NC(=O)N3CC[C@@]4(CCCNC4)C3)nc12 assay_result="> 1 µM"
compound=COc1nc(F)c(-c2ccc(F)cc2)c2sc(NC(=O)N3CCC(C)(O)CC3)nc12 assay_result="< 1 µM"
compound="COc1nc(F)c(N2CCOCC2)c2sc(NC(=O)N3CCC4(CCOC4)C3)nc12 (centres unmarked)" assay_result="> 1 µM"
compound=COc1ncc(C2=CCOCC2)c2sc(NC(=O)N3CCC(N4C(=O)CSC4=O)CC3)nc12 assay_result="> 1 µM"
compound=COc1ncc(C2=CCOCC2)c2sc(NC(=O)Nc3ccc(N4N=C(C)CC4=O)cc3)nc12 assay_result="> 1 µM"
compound=COc1ncc(C2=CCOCC2)c2sc(NC(=O)c3ccc(Cn4ccnc4)cc3)nc12 assay_result="< 0.1 µM"
compound=COc1ncc(-c2ccccc2)c2sc(NC(=O)c3ccc(-c4nnn[nH]4)cc3)nc12 assay_result="> 1 µM"
compound=COc1ncc(-c2ccc3cc[nH]c3c2)c2sc(NC(=O)N3CCC4(CCOCC4)C3)nc12 assay_result="> 1 µM"
compound=COc1ncc([C@@H]2COCCO2)c2sc(NC(=O)c3ccc(C(=O)O)cc3)nc12 assay_result="> 1 µM"
